Target: T1, 4H63-AA
T1 chain: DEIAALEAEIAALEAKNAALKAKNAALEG
Assay: two-hybrid library CCmax;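 also: natural log of median RNA to DNA barcode read ratio; higher means stronger binding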
Settings: mean of both orientations
property: interaction score

DKNAALEAEIAALEAENAALEAKIAALKG [4H3094-AA]; -0.753
DKNAALKAKNAALEAEIAALEAKIAALKG [4H3974-AA]; -0.932

[1] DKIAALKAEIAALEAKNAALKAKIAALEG [4H2621-AA]
[2] DKNAALKAKIAALKAKIAALEAENAALEG [4H3939-AA]
Smaller interaction score value, 1 vs 2 ? Select an item and report its label.
1

These measurements were taken from paper PMC10397247.
